# targetDesc: UniProt O35795
# Sequence (O35795 1-495): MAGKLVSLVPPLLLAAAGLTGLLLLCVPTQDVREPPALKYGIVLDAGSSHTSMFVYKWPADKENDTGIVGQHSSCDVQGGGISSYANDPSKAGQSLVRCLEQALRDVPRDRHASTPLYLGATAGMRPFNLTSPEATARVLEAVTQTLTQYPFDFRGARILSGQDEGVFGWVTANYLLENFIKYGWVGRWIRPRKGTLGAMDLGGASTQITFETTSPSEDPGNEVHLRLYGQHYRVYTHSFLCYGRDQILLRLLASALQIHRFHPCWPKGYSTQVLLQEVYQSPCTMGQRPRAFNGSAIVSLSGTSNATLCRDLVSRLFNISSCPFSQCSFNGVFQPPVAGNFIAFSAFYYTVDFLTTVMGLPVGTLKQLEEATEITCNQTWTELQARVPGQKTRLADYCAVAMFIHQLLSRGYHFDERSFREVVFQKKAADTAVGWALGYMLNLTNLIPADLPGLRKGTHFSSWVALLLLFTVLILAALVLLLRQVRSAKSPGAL
observationType: Ki (µM)
Write it as a number; the unit µM goes unstated.

Cc1ccc(C(=O)Nc2ccc(S(=O)(=O)O)c3cc(S(=O)(=O)O)cc(S(=O)(=O)O)c23)cc1NC(=O)c1cccc(NC(=O)Nc2cccc(C(=O)Nc3cc(C(=O)Nc4ccc(S(=O)(=O)O)c5cc(S(=O)(=O)O)cc(S(=O)(=O)O)c45)ccc3C)c2)c1 | 65.4

Query block: Which Ki reading was recorded for the molecule "Cc1nc(N=Nc2ccc(S(=O)(=O)O)cc2S(=O)(=O)O)c(COP(=O)(O)O)c(C=O)c1O" ?
Result block: 44.2
